Each record here notes measured activity change, negative = inhibition.
Assay: NFAT Signaling Pathway (AID 444);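 also: carbachol stimulus at about its EC50 of 1 µM final; % is scaled to controls: 0 for no effect and ±100 for the full control effect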
Settings: Jurkat NFAT-bla M1, carbachol, beta-lactamase ratio, 5 h; at 7.69 µM (top of the series) unless noted
Inconclusive results are not listed. The source made the active and inactive calls. Calls follow the shape of the dose curve; as a rule, active = well fitted curve in either direction with a large enough effect (not every such curve was filed as active); inconclusive = small, poorly fitted or top-dose-only effect, or another doubt; inactive = flat fitted curve, though single readings scatter.

So what's the measured activity change, negative = inhibition for this one? Clc1ccccc1-c1nc(Nc2ccncc2)c2ccccc2n1
8.97% (inactive)

// same read-out, input: COCCn1c(=O)c(CCc2ccccc2)nc2cncnc21
9.83% (inactive)

Can you check CN1CCN(c2ncc3nc(CCc4ccccc4)c(=O)n(CCc4ccccc4)c3n2)CC1 next?
-18.1% (inactive)

Again, but for COc1ccc2[nH]cc(CCNc3cc(-c4ccccc4OC)ncn3)c2c1
-7.55% (inactive)

Same lookup for COc1ccc(Oc2ncc3nc(-c4ccc(F)cc4)c(=O)n(C[C@H]4CCCO4)c3n2)cc1 , please.
0.101% (inactive)

Cool, now Cc1nc2cnc(Oc3cccc(Cl)c3)nc2n(Cc2ccc(F)cc2)c1=O
-21.7% (inactive)

Also NS(=O)(=O)c1ccc(N=Nc2c[nH]c(=O)c(O)c2)cc1 , if possible.
-22.1% (inactive)

Repeat for the following compound: COc1ccc2[nH]cc(CCNc3ncncc3-c3ccccc3OC)c2c1
-9.5% (inactive)

Please give the result for COc1cccc(-c2nc(NC3CC3)c3ccccc3n2)c1 too.
1.07% (inactive)

Query O=C(/C=N/O)NCCCN1CCOCC1 next
14.3% [at 17.2 µM] (inactive)

----------
Target: Thyrotropin receptor (Homo sapiens)
Assay: qHTS Assay for Antagonists of the Thyroid Stimulating Hormone Receptor (AID 488980);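 also: TSHR-transfected HEK293 cells stimulated with TSH at EC80 of 4 nM; 0% is about no effect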
Conditions: TSHR-expressing cells, cAMP antagonist read-out; series mostly up to 57.5 µM
Activity calls are given as the source filed them. Calls come from the whole dose curve; as a rule, active = well fitted curve in the direction sought with a large enough effect; inconclusive = small, poorly fitted or top-dose-only effect, or another doubt; inactive = no such curve, though single readings can be large or run the other way.
parameter: outcome

Please review the entries below; each comes with its answer.
[
  {
    "compound": "Nc1nc(Cl)nc2c1ncn2[C@@H]1O[C@H](CO)[C@H](O)[C@H]1O",
    "target.under.test": "Thyrotropin receptor (Homo sapiens)",
    "outcome": "inactive"
  },
  {
    "compound": "C#C[C@]1(O)CC[C@H]2C3CCC4=Cc5oncc5CC4(C)C3CCC21C (stereo partly specified)",
    "target.under.test": "Thyrotropin receptor (Homo sapiens)",
    "outcome": "inactive"
  },
  {
    "compound": "N#CC(Cc1ccc(O)c(O)c1)C(=O)N1CCc2ccccc21 (stereo unspecified)",
    "target.under.test": "Thyrotropin receptor (Homo sapiens)",
    "outcome": "inactive"
  },
  {
    "compound": "CC(C)C[C@H](N)CSSC[C@@H](N)CC(C)C",
    "target.under.test": "Thyrotropin receptor (Homo sapiens)",
    "outcome": "inactive"
  },
  {
    "compound": "Nc1nc(Cl)nc2c1ncn2[C@@H]1O[C@H](COP(=O)(O)OP(=O)(O)OP(=O)(O)O)[C@H](O)[C@H]1O",
    "target.under.test": "Thyrotropin receptor (Homo sapiens)",
    "outcome": "inactive"
  },
  {
    "compound": "Cc1cc(N)c2ccccc2[n+]1CCCCCCCCCCCCCC[n+]1c(C)cc(N)c2ccccc21",
    "target.under.test": "Thyrotropin receptor (Homo sapiens)",
    "outcome": "inactive"
  }
]

Can you share its outcome? I mean this compound: N#Cc1c(-c2ccccc2)no[n+]1[O-]
inactive

Repeat with C[C@]12C[C@H](O)C3[C@@H](CCC4=CC(=O)CC[C@@]43C)[C@@H]1CC[C@@H]2C(=O)CO (stereo partly specified)
inactive

----------
Molecular target: Guanidinoacetate N-methyltransferase (Homo sapiens)
Test: Confirmatory Screen for Target Class Profiling of Small Molecule Inhibitors of Methyltransferases (AID 1745852)
Details: MTase-Glo luminescence, SAH detection, recombinant enzyme; series mostly up to 57.3 µM
The source made the active and inactive calls. Calls follow the shape of the full dose curve.
In this exercise, the only acceptable responses are active, inactive

Check out these entries, answers already filled in.
[
  {
    "compound": "O=c1c2ccccc2n2c(-c3cc(Cl)ccc3O)nnc2n1Cc1ccc(F)cc1",
    "qualitative.label": "active"
  },
  {
    "compound": "c1ccc(-c2[nH]nc3ncc(-c4cn[nH]c4)nc23)cc1",
    "qualitative.label": "active"
  },
  {
    "compound": "COc1ccccc1-c1[nH]nc2ncc(C(=O)N3CCN(Cc4ccccc4)CC3)nc12",
    "qualitative.label": "active"
  },
  {
    "compound": "COCc1nc2nc(-c3ccccc3)c(-c3ccc(O)c(F)c3)cc2n1C",
    "qualitative.label": "active"
  },
  {
    "compound": "C[C@H]1CN(C(=O)Nc2ccc(F)cc2F)C[C@@H]1c1nc(-c2ccccc2)no1",
    "qualitative.label": "active"
  }
]

I'd appreciate the recorded outcome for Cc1ccccc1Sc1ccc(/C=C2\SC(=S)NC2=O)cc1[N+](=O)[O-] from this test.
active

Query COc1ccc(CCNC(=O)c2ccc3c(=O)nc4c(-c5cccc(F)c5)n[nH]n4c3c2)cc1OC next
active

Ok, now COc1ccc(-c2nc3ccncc3[nH]2)cc1
active

Repeat with O=c1cc(O)cc(/C=C\c2ccc(O)c(O)c2)o1
active

Would you mind doing CCCC1c2cccn2CCN1C(=O)Nc1ccc(C)cc1Cl (stereo not given) as well?
inactive

----------
Assay: Cell Viability - LYMP1-002 - Assay at 16 hr (AID 948);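 also: 0% = DMSO alone and full effect = 92 µM tetraoctylammonium bromide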
Conditions: LYMP1-002 lymphoblastoid cell viability; series mostly up to 92.2 µM
Results filed as inconclusive are left out. Active and inactive are the calls of the source. Calls come from the whole dose curve; as a rule, active = well fitted cell-killing curve with a large enough effect; inconclusive = small, poorly fitted or top-dose-only effect; inactive = flat fitted curve, though single readings scatter.
Choose one outcome from this list and give only that: active, inactive

[
  {
    "compound": "Clc1cc(Cl)c(Cl)c(Cl)c1Cl",
    "qualitative.label": "inactive"
  },
  {
    "compound": "CCO[Si](CCCN)(OCC)OCC",
    "qualitative.label": "inactive"
  },
  {
    "compound": "OCCNCCO",
    "qualitative.label": "inactive"
  },
  {
    "compound": "c1ccc2c(c1)[nH]c1ccccc12",
    "qualitative.label": "inactive"
  },
  {
    "compound": "CCCCCCCCCCCCCC(=O)O",
    "qualitative.label": "inactive"
  }
]

Call for entry CN(C)CCCCCCN(C)C :
inactive

Same read-out for Nc1ccc(Cl)cc1Cl ?
inactive

----------
Molecular target: Rap guanine nucleotide exchange factor 3 (Homo sapiens) (UniProt O95398)
Sequence (O95398 whole entry, looked up): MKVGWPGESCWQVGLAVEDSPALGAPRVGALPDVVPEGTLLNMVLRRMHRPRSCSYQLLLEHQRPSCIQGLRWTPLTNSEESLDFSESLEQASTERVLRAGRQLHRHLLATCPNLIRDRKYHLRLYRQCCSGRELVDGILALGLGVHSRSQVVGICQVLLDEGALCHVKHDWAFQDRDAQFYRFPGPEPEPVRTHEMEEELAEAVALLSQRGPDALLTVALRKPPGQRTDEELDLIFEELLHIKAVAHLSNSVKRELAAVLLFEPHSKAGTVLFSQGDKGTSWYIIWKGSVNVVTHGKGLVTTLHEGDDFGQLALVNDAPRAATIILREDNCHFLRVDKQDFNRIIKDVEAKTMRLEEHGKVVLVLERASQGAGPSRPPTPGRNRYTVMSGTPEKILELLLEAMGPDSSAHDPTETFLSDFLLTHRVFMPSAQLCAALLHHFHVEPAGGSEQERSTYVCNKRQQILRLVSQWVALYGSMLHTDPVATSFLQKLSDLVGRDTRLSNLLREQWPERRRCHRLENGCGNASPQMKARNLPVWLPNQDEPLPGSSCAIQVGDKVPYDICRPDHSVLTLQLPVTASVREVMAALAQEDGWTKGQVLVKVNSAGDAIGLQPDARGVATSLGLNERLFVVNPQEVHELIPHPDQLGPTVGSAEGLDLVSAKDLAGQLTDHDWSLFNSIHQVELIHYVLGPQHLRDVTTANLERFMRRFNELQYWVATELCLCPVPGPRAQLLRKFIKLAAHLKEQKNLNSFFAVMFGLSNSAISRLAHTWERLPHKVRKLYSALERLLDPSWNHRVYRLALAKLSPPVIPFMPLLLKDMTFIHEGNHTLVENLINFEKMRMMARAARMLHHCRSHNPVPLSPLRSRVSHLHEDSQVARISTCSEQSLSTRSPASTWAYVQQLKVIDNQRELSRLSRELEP
Assay: Counterscreen qHTS for antagonist of cAMP-regulated guanine nucleotide exchange factor 3 (EPAC1) (AID 1645888);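 also: fluorescence loss as bound BODIPY-GDP is released from Rap1B; % of control where 0% means no effect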
Details: Rap1B-BODIPY-GDP nucleotide exchange, fluorescence; series mostly up to 154 µM
Records with an inconclusive call do not appear. Activity calls are given as the source filed them. The call rests on the fitted dose curve; in most records, active means well fitted inhibition curve with a large enough effect; inconclusive means small, poorly fitted or top-dose-only effect; inactive means no such curve, though single readings can be large or run the other way.
parameter: activity change, negative = inhibition

// known answers, use as guide
[
  {
    "compound": "Cc1nc2sc(C(c3cccs3)N3CCN(C(=O)c4ccco4)CC3)c(O)n2n1 (stereo unspecified)",
    "target.under.test": "Rap guanine nucleotide exchange factor 3 (Homo sapiens) (UniProt O95398)",
    "value.measured": "inactive"
  },
  {
    "compound": "CCN(c1ccc(NC(=O)CCc2nc3sc4c(c3c(=O)[nH]2)CCCC4)cc1)C(C)C",
    "target.under.test": "Rap guanine nucleotide exchange factor 3 (Homo sapiens) (UniProt O95398)",
    "value.measured": "-10.9% [at 30.8 µM] (inactive)"
  },
  {
    "compound": "O=C(O)c1ccccc1-c1ccccc1C(=O)Nc1ccc2c(c1)oc(=O)c1ccccc12",
    "target.under.test": "Rap guanine nucleotide exchange factor 3 (Homo sapiens) (UniProt O95398)",
    "value.measured": "inactive"
  },
  {
    "compound": "CN1OC[C@@H]2CN(Cc3ccc(Cl)cc3)[C@H](c3ccc(-n4ccnc4)cc3)C[C@@H]21",
    "target.under.test": "Rap guanine nucleotide exchange factor 3 (Homo sapiens) (UniProt O95398)",
    "value.measured": "1.17% [at 30.8 µM] (inactive)"
  }
]

Could you share which activity change, negative = inhibition value was measured for COc1ccc(C(=O)N(CCc2ccccc2)Cc2cccs2)c(OC)c1 ?
inactive

And then N#Cc1c(-c2ccccc2)c(C#N)c2nc3ccccc3n2c1N , what is it?
inactive

Moving on to CC(=O)NC(c1ccccc1)c1c(O)ccc2ccccc12 (stereo unspecified)
-4.37% [at 30.8 µM] (inactive)

Now the compound CCc1noc(C)c1C(=O)Nc1nc2c(C)cc(C)cc2s1
inactive

Repeat for the following compound: COc1ccc(S(=O)(=O)NC(CCSC)C(=O)NC2CCCCC2)cc1 (stereo unspecified)
inactive

Record: Cc1onc(-c2c(Cl)cccc2Cl)c1COC(=O)c1ccc(Cl)cc1
inactive

Then what about the compound C/C(Cc1ccccc1)=N\NC(=O)c1cccnc1 ?
-5.84% [at 30.8 µM] (inactive)

----------
Target: Rap guanine nucleotide exchange factor 4 (Homo sapiens) (UniProt Q8WZA2)
Sequence (Q8WZA2 whole entry, looked up): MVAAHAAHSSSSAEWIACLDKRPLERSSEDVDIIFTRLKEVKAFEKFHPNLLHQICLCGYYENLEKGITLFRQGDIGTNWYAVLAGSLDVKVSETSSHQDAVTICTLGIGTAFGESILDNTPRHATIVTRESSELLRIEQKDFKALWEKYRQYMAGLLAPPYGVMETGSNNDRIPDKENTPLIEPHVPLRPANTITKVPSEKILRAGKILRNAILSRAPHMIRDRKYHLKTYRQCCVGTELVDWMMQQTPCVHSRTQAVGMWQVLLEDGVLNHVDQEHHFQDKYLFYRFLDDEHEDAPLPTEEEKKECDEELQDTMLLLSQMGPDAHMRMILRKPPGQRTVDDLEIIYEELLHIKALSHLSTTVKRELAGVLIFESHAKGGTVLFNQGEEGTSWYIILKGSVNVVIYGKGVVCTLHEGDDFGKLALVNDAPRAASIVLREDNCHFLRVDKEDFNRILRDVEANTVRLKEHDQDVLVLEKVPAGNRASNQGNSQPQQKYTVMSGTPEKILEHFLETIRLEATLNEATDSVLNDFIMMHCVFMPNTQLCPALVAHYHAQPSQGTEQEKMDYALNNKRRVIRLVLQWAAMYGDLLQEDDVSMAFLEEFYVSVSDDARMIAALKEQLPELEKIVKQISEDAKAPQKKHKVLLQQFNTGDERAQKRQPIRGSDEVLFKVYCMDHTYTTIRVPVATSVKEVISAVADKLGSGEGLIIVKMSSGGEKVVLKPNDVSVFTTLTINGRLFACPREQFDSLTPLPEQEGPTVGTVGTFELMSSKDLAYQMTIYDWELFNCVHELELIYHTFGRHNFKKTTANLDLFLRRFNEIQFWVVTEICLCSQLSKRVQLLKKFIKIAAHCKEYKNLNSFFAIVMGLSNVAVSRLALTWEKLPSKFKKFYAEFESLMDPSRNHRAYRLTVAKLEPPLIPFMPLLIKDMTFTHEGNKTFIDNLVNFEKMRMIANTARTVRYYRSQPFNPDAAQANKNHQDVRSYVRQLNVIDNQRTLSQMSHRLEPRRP
Assay: Confirmatory qHTS for antagonist of cAMP-regulated guanine nucleotide exchange factor 4 (EPAC2) (AID 1645885); also: nearly all actives have a fitted effect of over 25% in size; also: potency is read from the fitted curve at half-maximal effect
Details: EPAC2 Rap1B-BODIPY-GDP exchange fluorescence, biochemical; series mostly up to 12.7 µM
Records with an inconclusive call do not appear. Active and inactive are the calls of the source. Calls come from the whole dose curve; as a rule, active = well fitted inhibition curve with a large enough effect; inconclusive = small, poorly fitted or top-dose-only effect; inactive = no such curve, though single readings can be large or run the other way.
parameter: Potency

Completed entries (count: 9):
[
  {
    "compound": "CC(C)c1ccc(/C=C/C(=O)Nc2ccc(CN3CCOCC3)cc2)cc1",
    "Potency": "95.3 µM (active)"
  },
  {
    "compound": "CN(C)S(=O)(=O)c1ccc(N2CCCC2)c(C(=O)NCC2COc3ccccc3O2)c1 (stereo not given)",
    "Potency": "30.1 µM (active)"
  },
  {
    "compound": "COc1cc2c(cc1OC)CN(C(C)C(=O)N1CCc3ccccc31)CC2 (stereo not given)",
    "Potency": "inactive"
  },
  {
    "compound": "Cc1cccc(NC(=O)CSCC(=O)Nc2cccc(S(=O)(=O)N3CCCCCC3)c2)c1",
    "Potency": "inactive"
  },
  {
    "compound": "CN(C)c1ccc(-c2cc3ccccc3c(=O)o2)cc1",
    "Potency": "inactive"
  },
  {
    "compound": "COc1cc(C(=O)NCC(=O)N/N=C(\\C)Cc2ccccc2)cc(OC)c1OC",
    "Potency": "inactive"
  },
  {
    "compound": "CCOC(=O)C1CCCN(c2nc3ccccc3nc2C(C#N)C(=O)OC(C)C)C1 (stereo not given)",
    "Potency": "inactive"
  },
  {
    "compound": "COc1ccc2nc(N3CCCC3)c(C#N)cc2c1",
    "Potency": "inactive"
  },
  {
    "compound": "CCC(C)Sc1nc2c(c(=O)[nH]c(=O)n2C)n1CC(O)COc1cccc2ccccc12 (stereo not given)",
    "Potency": "inactive"
  }
]

Moving on to another compound below.
Record Cc1ccc(O)c(-c2n[nH]c3c2C(c2ccc(F)cc2)N(Cc2ccco2)C3=O)c1 (stereo not given) : what is its Potency with Rap guanine nucleotide exchange factor 4 (Homo sapiens) (UniProt Q8WZA2)?
inactive
